- experimental-system: DLL3 endogenously expressed on NCI-H82 cells (UniProt Q9NYJ7)
- Sequence (Q9NYJ7 27-618): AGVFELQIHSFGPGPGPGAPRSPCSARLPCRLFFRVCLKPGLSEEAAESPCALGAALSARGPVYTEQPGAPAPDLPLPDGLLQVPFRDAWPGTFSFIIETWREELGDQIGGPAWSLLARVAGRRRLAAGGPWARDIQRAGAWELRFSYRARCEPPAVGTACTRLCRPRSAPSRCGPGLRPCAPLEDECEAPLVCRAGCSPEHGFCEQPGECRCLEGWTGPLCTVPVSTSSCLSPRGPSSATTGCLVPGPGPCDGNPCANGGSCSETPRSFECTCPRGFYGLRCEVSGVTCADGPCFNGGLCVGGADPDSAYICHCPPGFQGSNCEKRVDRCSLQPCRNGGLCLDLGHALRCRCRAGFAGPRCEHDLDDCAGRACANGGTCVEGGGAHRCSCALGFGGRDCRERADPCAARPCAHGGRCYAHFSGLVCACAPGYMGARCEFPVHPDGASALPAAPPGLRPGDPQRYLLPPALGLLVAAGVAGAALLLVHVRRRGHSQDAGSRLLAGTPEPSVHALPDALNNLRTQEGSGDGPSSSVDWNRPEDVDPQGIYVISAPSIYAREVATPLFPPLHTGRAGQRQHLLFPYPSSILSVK
- test-method-notes: FACS on NCI-H82 cells; antibody 0.0064 nM
measured-endpoint: MFI
When you answer, write just the number.

Examples with their reported MFI follow.
Hab008L1H5-hFc (scFv, part only; not given: VL-VH linker and human IgG1 Fc, V domains shown, not shown: another chain or arm of the molecule; a dimerising Fc or GST; small tags and cut ends) VL: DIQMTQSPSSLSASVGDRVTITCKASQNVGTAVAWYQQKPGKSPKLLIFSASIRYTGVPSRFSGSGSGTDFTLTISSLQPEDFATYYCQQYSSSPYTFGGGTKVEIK VH: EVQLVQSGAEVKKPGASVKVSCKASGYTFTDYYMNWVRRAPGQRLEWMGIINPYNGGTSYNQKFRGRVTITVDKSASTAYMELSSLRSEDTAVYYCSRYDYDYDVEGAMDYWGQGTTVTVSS = 106
Hab009VL2aVH1-hFc (Fc fusion, part only; not given: Linker and human IgG1 Fc, not shown: a dimerising Fc or GST) chain, part: DIVMTQSPLSLPVTPGEPASISCRASQTISDYLHWYLQKPGQSPRLLIKYASQSISGVPDRFSGSGSGTDFTLKISRVEAEDVGVYYCQQGHSFPLTFGQGTKLEIKEVQLVQSGAEVKKPGASVKVSCKASGYTFTSYWMHWVRQAPGQRLEWMGTIYPGNSDTRYNQKFKDRVTITADTSASTAYMELSSLRSEDTAVYYCTRSYDYGDLDYWGQGTTVTVSS = 185

Okay, now this binder:
Q) Any idea what MFI was measured for Hab008L3H5-hFc (scFv, part only; not given: scFv linker and human IgG1 Fc, V domains shown, not shown: another chain or arm of the molecule; a dimerising Fc or GST; small tags and cut ends) VL: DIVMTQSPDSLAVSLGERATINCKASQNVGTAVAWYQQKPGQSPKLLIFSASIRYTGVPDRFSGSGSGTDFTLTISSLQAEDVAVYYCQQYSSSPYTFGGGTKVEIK VH: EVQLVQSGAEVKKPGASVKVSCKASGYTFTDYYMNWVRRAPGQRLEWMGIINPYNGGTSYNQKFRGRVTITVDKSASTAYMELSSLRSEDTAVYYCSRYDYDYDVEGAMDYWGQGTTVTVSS ?
A) 90
